- RUN_DESCRIPTION: Oral PK and PK modeling of KAE609 in NMRI mice
- Format: in vivo, female NMRI mice
- TEST_SETTINGS: female, NMRI, mouse, plasma, po, 5.3 mg/kg, single oral dose 5.3 mg/kg, infected NMRI mice
ENDPOINT_NAME: Cmax
For clarity, give the value followed by its unit.

Return reported Cmax; argument: C[C@H]1Cc2c([nH]c3cc(Cl)c(F)cc23)[C@@]2(N1)C(=O)Nc1ccc(Cl)cc12 [(+)-7 (KAE609)]
960 ng/mL

====

- RUN_DESCRIPTION: In vivo PK after single p.o. and i.v. dosing in CD-1 mice
- Design: species or system female CD-1 mice
- TEST_SETTINGS: female, mouse, plasma; oral 5.6 mg/kg, CD-1 mice, HCl/Solutol HS15/citrate pH 3 formulation; read-out: Cmax
ENDPOINT_NAME: Cmax (ng/mL)
Numbers only, in ng/mL.

Return reported Cmax; argument: C[C@H]1Cc2c([nH]c3cc(Cl)c(F)cc23)[C@@]2(N1)C(=O)Nc1ccc(Cl)cc12 [(+)-7 (KAE609)]
250

Entry source: paper PMC4335872
